All figures here come from patent US20220233512A1.

# test.target: mu opiate receptor (MOR) (Rattus norvegicus)
# Construct: from tissue; host or cells: striatum (membrane preparation)
# Sequence (P33535 whole entry): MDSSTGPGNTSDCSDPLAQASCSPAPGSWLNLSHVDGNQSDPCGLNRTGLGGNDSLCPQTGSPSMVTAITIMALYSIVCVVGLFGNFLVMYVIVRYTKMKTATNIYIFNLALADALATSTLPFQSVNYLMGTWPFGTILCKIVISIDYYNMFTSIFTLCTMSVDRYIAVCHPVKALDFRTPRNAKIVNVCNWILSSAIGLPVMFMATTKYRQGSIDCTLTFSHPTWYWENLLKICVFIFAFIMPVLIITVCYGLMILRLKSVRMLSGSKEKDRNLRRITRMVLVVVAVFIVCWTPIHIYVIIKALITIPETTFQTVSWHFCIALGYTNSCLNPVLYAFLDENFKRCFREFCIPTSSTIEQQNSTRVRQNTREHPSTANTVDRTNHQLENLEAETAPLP
# protocol: MOR agonist activity using [35S]GTPgS binding assay in striatal membranes
# Assay type: biochemical
# run.parameters: 0.1 μM compound as agonist; Series C-1 table
For each entry below, report its MOR agonist activity ([35S]GTPgS binding to Gao) value.
Numbers only, in %.

Previously resolved entries follow.
compound | units.symbol | reported.value
CCCCc1ccc(S(=O)(=O)N2CCC3(CC2)OCCN3S(=O)(=O)c2ccc(CCCC)cc2)cc1 | % | 150.3
COc1ccc(S(=O)(=O)N2CCOC23CCN(S(=O)(=O)c2ccc(C(C)=O)cc2)CC3)cc1 | % | 142.2

Quick batch: MOR agonist activity ([35S]GTPgS binding to Gao) for everything below.
1. O=S(=O)(c1ccc(Br)cc1Br)N1CCC2(CC1)OCCN2S(=O)(=O)c1ccc(Br)cc1Br
2. O=C(O)c1ccc(C(=O)N2CCC3(CC2)OCCN3S(=O)(=O)c2ccc(C(=O)O)cc2)cc1
3. O=S(=O)(c1ccc(F)c(F)c1)N1CCC2(CC1)OCCN2S(=O)(=O)c1ccc(F)c(F)c1
4. CC(=O)c1ccc(S(=O)(=O)N2CCC3(CC2)NC(=O)CN3Cc2ccccc2)cc1 [Compound C0085M]
5. O=C1CN(Cc2ccccc2)C2(CCN(S(=O)(=O)c3cc(Cl)c(O)c(Cl)c3)CC2)N1 [Compound C0139M]
6. Nc1ccc(C(=O)N2CCC3(CC2)OCCN3S(=O)(=O)c2ccc(N)cc2)cc1

1. 165.6
2. 159.7
3. 172.7
4. 211.6
5. 156.1
6. 153.2

Batch of 2 compounds: report MOR agonist activity ([35S]GTPgS binding to Gao) for each.
1. CC(=O)c1ccc(S(=O)(=O)N2CCC3(CC2)OCC(CCCCN(C)C)N3S(=O)(=O)c2ccc(C(C)=O)cc2)cc1 (stereo not drawn)
2. CC(=O)c1ccc(C(=O)N2CCC3(CC2)OCCN3S(=O)(=O)c2ccc(C(C)=O)cc2)cc1

187.9
108.4

List the reported MOR agonist activity ([35S]GTPgS binding to Gao) of each compound below.
1. COc1ccc(NC(=O)N2CCC3(CC2)OCCN3S(=O)(=O)c2ccc(OC)cc2)cc1
2. COc1ccc(S(=O)(=O)N2CCC3(CC2)OCCN3S(=O)(=O)c2ccc(OC)cc2)cc1
3. COc1ccc(S(=O)(=O)N2CCCC3(C2)OCCN3S(=O)(=O)c2ccc(OC)cc2)cc1 (stereo not drawn) [Compound C0145M]
4. O=S(=O)(c1csc2ccccc12)N1CCC2(CC1)OCCN2S(=O)(=O)c1csc2ccccc12 [Compound C0150M]
5. COC(=O)c1ccc(S(=O)(=O)N2CCC3(CC2)OCCN3S(=O)(=O)c2ccc(C(=O)OC)cc2)cc1

1: 186.1; 2: 152.3; 3: 193.0; 4: 167.1; 5: 93.9
